Listed here: items and their measured pIC50.
system.tested: PLK4 (Homo sapiens, UniProt O00444)
Sequence (O00444 whole entry): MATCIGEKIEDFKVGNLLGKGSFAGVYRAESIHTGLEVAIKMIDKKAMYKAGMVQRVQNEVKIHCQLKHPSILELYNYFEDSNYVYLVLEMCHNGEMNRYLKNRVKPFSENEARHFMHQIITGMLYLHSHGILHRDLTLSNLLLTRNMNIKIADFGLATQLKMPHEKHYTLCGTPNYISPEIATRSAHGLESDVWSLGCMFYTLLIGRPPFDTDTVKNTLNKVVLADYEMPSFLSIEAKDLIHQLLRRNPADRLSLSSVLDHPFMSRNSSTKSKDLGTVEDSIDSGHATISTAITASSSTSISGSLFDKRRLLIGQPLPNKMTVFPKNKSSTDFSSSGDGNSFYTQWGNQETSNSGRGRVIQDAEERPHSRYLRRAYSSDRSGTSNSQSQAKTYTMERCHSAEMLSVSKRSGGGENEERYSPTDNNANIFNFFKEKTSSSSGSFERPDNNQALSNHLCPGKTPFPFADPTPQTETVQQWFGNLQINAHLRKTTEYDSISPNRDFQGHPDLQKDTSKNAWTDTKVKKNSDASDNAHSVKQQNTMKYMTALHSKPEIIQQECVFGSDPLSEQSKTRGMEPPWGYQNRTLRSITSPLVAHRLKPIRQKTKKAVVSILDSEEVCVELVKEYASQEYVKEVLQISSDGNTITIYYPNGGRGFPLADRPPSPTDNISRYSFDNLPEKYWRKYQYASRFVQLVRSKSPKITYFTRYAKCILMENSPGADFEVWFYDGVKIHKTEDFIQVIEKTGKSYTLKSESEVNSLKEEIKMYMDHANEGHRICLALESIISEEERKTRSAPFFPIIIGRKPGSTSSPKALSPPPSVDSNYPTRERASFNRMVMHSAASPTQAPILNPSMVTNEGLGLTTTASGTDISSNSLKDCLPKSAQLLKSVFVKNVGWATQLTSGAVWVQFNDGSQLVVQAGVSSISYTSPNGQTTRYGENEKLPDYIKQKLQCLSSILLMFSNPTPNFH
method.notes: Activity (IC50) of the Table 1 compounds as PLK4 inhibitors
Type: biochemical
test.conditions: Table 1, IC50 class
pIC50: −log10 of the molar value.

The following compounds have reported results that may help.
Cc1cc(Nc2nc(Sc3ccc(S(=O)(=O)Cc4ccccc4)cc3)nc(N3CCN(CCN(C)C)CC3)c2C)n[nH]1    > 7.00
CC(=O)Nc1ccc(Sc2nc(Nc3cc(C)[nH]n3)c(Cl)c(N3CCN(C)CC3)n2)cc1    > 7.00
CC(=O)Nc1ccc(Sc2nc(Nc3cc(C)[nH]n3)c(C)c(N3CCN(C(C)C)CC3)n2)cc1    > 7.00
COC(=O)c1cccc(CS(=O)(=O)c2ccc(Sc3nc(Nc4cc(C)[nH]n4)c(OC)c(N4CCN(CCN(C)C)CC4)n3)cc2)c1    > 7.00
COc1c(Nc2cc(C)[nH]n2)nc(Sc2ccc(NC(C)=O)cc2)nc1N1CCCC1    > 7.00

Query :: Quick one: pIC50 of COc1c(Nc2cc(C)[nH]n2)nc(Sc2ccc(NC(=O)Cc3cccc([N+](=O)[O-])c3F)cc2F)nc1N1CCOCC1 ?
Result :: > 7.00

Query :: Quick one: pIC50 of COc1c(Nc2cc(C)[nH]n2)nc(Sc2ccc(S(=O)(=O)Cc3cccc(C(F)(F)F)c3F)cc2F)nc1N1CCOCC1 ?
Result :: > 7.00

Query :: Quick one: pIC50 of COc1c(Nc2cc(C)[nH]n2)nc(Sc2ccc(S(=O)(=O)C(C)(C)c3c(F)c(F)cc(F)c3F)cc2F)nc1N1CCN(C(C)=O)CC1 ?
Result :: > 7.00
